Source listed as patent US20250170126A1.

So I've got a bunch of compounds here, and I need their IC50 values.
system: Human B0AT1 (Homo sapiens (Human))
protocol_description: hB0AT1 inhibitory test (phenylalanine uptake)
test_settings: Human B0AT1 stable expression CHO cells; [3H]-L-phenylalanine uptake, phenylalanine 0.25 mM
Numbers only, in nM.

As a guide, the following entries are already answered.
Cn1nc2n(c1=O)CCN(C(=O)CNC(=O)/C=C/c1ccc(C(F)(F)F)cc1)C2    51
C[C@H]1Cn2nccc2CN1C(=O)CNC(=O)/C=C/c1ccc(C(F)(F)F)cc1    60

Items follow; give IC50 for each.
1. O=C(/C=C/c1ccc(C(F)(F)F)cc1)NCC(=O)N1CCc2cc(C(=O)O)ncc2C1
2. O=C(/C=C/c1ccc(C(F)(F)F)cc1)NCC(=O)N1CCc2cn[nH]c2C1
3. CN1CCN(C(=O)CNC(=O)/C=C/c2ccc(-c3cccnc3)cc2)CC1
4. O=C(/C=C/c1ccc(C(F)(F)F)cc1)NCC(=O)N1CCOC(c2ccccc2)C1 (stereo not drawn)
5. CC(=O)N1CCN(C(=O)CNC(=O)/C=C/c2ccc(C(F)(F)F)cc2)CC1
6. CN1CCN(C(=O)CNC(=O)/C=C/c2ccc(-c3ccc(C(F)(F)F)cc3)cc2)CC1
7. O=C(/C=C/c1ccc(C(F)(F)F)cc1)NCC(=O)N1CCC(c2cccnc2)C1 (stereo not drawn)

Result string:
55
73
471
815
978
678
1340

----------
system: Human B0AT1 (Homo sapiens (Human), UniProt Q695T7)
Sequence (Q695T7 whole entry): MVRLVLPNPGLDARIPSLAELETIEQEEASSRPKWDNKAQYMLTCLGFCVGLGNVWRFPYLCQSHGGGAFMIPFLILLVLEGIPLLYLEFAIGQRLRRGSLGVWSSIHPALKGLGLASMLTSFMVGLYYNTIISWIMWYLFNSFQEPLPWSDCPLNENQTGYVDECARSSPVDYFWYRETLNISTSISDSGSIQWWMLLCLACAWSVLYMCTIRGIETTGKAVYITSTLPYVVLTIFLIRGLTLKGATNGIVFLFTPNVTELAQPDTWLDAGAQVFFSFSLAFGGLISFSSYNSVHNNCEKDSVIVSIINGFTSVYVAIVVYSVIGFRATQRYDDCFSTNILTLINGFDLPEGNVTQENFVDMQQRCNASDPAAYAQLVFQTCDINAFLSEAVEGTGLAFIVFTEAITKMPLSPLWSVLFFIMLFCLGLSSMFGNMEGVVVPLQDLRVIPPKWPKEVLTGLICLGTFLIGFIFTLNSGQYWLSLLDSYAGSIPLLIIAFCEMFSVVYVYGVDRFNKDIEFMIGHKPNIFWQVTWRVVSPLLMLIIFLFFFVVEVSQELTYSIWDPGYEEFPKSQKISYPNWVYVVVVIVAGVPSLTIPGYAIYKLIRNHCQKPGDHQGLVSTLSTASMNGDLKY
protocol_description: hB0AT1 inhibitory test (phenylalanine uptake)
test_settings: Human B0AT1 stable expression CHO cells; [3H]-L-phenylalanine uptake, phenylalanine 0.25 mM
Structures can show the parent of a compound that is named as a salt.
measured_metric: pIC50
One number for each entry, as −log10 of the molar value.

O=C(/C=C/c1ccc(C(F)(F)F)cc1)NCC(=O)N1CCNCC1 [I-133, hydrochloride]    7.16
O=C(/C=C/c1ccc(C(F)(F)F)cc1)NCC(=O)N1CCn2nc(C(=O)O)c(C3CC3)c2C1 [I-268]    7.10
CC(C)N1CCN(C(=O)CNC(=O)/C=C/c2ccc(C(F)(F)F)cc2)CC1 [I-24]    7.24
CNS(=O)(=O)c1ccc2c(c1)CCN(C(=O)CNC(=O)/C=C/c1ccc(C(F)(F)F)cc1)C2 [I-221]    7.36
O=C(/C=C/c1ccc(C(F)(F)F)cc1)NCC(=O)N1CCc2c(ccc(C(=O)O)c2F)C1 [I-261]    6.65
CN1CCN(C(=O)CNC(=O)/C=C/c2ccc(C(F)(F)F)cc2)C(c2ccccc2)C1 (stereo not drawn) [I-45]    7.62

Items follow; give pIC50 for each.
1. O=C(/C=C/c1ccc(S(F)(F)(F)(F)F)cc1)NCC(=O)N1CCn2nc(C(=O)O)cc2C1 [I-272]
2. O=C(/C=C/c1ccc(C(F)(F)F)cc1)NCC(=O)N1CCn2c(nnc2C(F)(F)F)C1 [I-22]

Result string:
1. 6.85
2. 6.67

----------
system: Human B0AT1 (Homo sapiens (Human))
protocol_description: hB0AT1 inhibitory test (phenylalanine uptake)
test_settings: Human B0AT1 stable expression CHO cells; [3H]-L-phenylalanine uptake, phenylalanine 0.25 mM
pIC50: −log10 of the molar value.
Param threshold (7) applies to pIC50; output condition met when value >= threshold, condition not met when value < threshold.

CCOCCN(CCOCC)C(=O)CNC(=O)/C=C/c1ccc(C(F)(F)F)cc1    condition not met
COc1nccc2c1CCN(C(=O)CNC(=O)/C=C/c1ccc(C(F)(F)F)cc1)C2    condition met
O=C(/C=C/c1ccc(C(F)(F)F)cc1)NCC(=O)N1CCn2ncc(C(=O)O)c2C1    condition not met
O=C(/C=C/c1ccc(C(F)(F)F)cc1)NCC(=O)N1CCc2nncn2CC1    condition not met
CCN(CC)C(=O)c1cnn2c1CN(C(=O)CNC(=O)/C=C/c1ccc(C(F)(F)F)cc1)CC2    condition met
CC(=O)N[C@H]1CCN(C(=O)CNC(=O)/C=C/c2ccc(C(F)(F)F)cc2)C1    condition not met
Cn1cnc2c1CN(C(=O)CNC(=O)/C=C/c1ccc(C(F)(F)F)cc1)CC2    condition met
CN1CCN(C(=O)CNC(=O)/C=C/c2ccc(-c3ccc(F)cc3)cc2)CC1    condition met
CN(C)C(=O)CNC(=O)/C=C/c1ccc(C(F)(F)F)cc1    condition not met

Lab note: next compound to report on.
Query string: Item CN1CCN(C(=O)CNC(=O)/C=C/c2ccc(OC(F)(F)F)cc2)CC1 with pIC50 of 7 or above?
Result string: condition met

----------
system: Human B0AT1 (Homo sapiens (Human))
protocol_description: hB0AT1 inhibitory test (phenylalanine uptake)
test_settings: Human B0AT1 stable expression CHO cells; [3H]-L-phenylalanine uptake, phenylalanine 0.25 mM
measured_metric: log10(IC50) (log10 of the value in µM)
Annotation: log10 of IC50, µM basis.

CC1Cn2ncnc2CN1C(=O)CNC(=O)/C=C/c1ccc(C(F)(F)F)cc1 (centres unmarked)    -0.40
COCCN(C(=O)CNC(=O)/C=C/c1ccc(C(F)(F)F)cc1)C(C)COC (centres unmarked)    -0.55
O=C(/C=C/c1ccc(C(F)(F)F)cc1)NCC(=O)N1CCn2nncc2C1    -1.38
O=C(/C=C/c1ccc(C(F)(F)F)cc1)NCC(=O)N1CCc2oncc2C1    -1.54
Cn1cc2c(n1)CCN(C(=O)CNC(=O)/C=C/c1ccc(C(F)(F)F)cc1)C2    -1.19

Items follow; give log10(IC50) for each.
1. CC(C)c1ccc(/C=C/C(=O)NCC(=O)N2CCN(C)CC2)cc1
2. CC(C)CNC(=O)C1CN(C(=O)CNC(=O)/C=C/c2ccc(C(F)(F)F)cc2)Cc2ccccc21 (centres unmarked)
3. CN1CCN(C(=O)CNC(=O)/C=C/c2ccc(C3CCC3)cc2)CC1

Result string:
[-0.56, -1.06, -1.41]

----------
So I've got a bunch of molecules here, and I need their log10(IC50) values.
system: Human B0AT1 (Homo sapiens (Human))
protocol_description: hB0AT1 inhibitory test (phenylalanine uptake)
test_settings: Human B0AT1 stable expression CHO cells; [3H]-L-phenylalanine uptake, phenylalanine 0.25 mM
Annotation: log10 of IC50, nM basis.

Items follow; give log10(IC50) for each.
1. CO[C@H]1CCN(C(=O)CNC(=O)/C=C/c2ccc(C(F)(F)F)cc2)C1
2. CN1CCN(C(=O)CNC(=O)/C=C/c2ccc(OC(F)(F)F)cc2)CC1=O

Result string:
1: 2.96; 2: 2.14

Items follow; give log10(IC50) for each.
1. O=C(/C=C/c1ccc(C(F)(F)F)cc1)NCC(=O)N1CCc2nccn2CC1
2. NC(=O)c1cnn2c1CN(C(=O)CNC(=O)/C=C/c1ccc(C(F)(F)F)cc1)CC2
3. Cc1nc2c(s1)CN(C(=O)CNC(=O)/C=C/c1ccc(C(F)(F)F)cc1)C2
4. CN1CCN(C(=O)CNC(=O)/C=C/c2ccc(C(F)(F)F)cc2)[C@@H](C(=O)N(C)C)C1

Result string:
[2.29, 1.64, 1.91, 2.61]

----------
system: Human B0AT1 (Homo sapiens (Human), UniProt Q695T7)
protocol_description: hB0AT1 inhibitory test (phenylalanine uptake)
test_settings: Human B0AT1 stable expression CHO cells; [3H]-L-phenylalanine uptake, phenylalanine 0.25 mM
So I've got a bunch of compounds here, and I need their IC50 values.
Be sure to follow the number with its unit.

As a guide, the following entries are already answered.
O=C(/C=C/c1ccc(OC(F)F)cc1)NCC(=O)N1CCn2nccc2C1    0.094 µM
NC(=O)c1ccc2c(c1)CCN(C(=O)CNC(=O)/C=C/c1ccc(C(F)(F)F)cc1)C2    0.021 µM
Cn1ncc2c1CCN(C(=O)CNC(=O)/C=C/c1ccc(C(F)(F)F)cc1)C2    0.07 µM

Could you now look at the following compound, please?
Query string: In one line, give reported IC50 of the entry O=C(/C=C/c1ccc(C(F)(F)F)cc1)NCC(=O)N1CCCn2ccnc2C1 .
Result string: 0.06 µM

----------
system: Human B0AT1 (Homo sapiens (Human))
protocol_description: hB0AT1 inhibitory test (phenylalanine uptake)
Type: cell-based
test_settings: Human B0AT1 stable expression CHO cells; [3H]-L-phenylalanine uptake, phenylalanine 0.25 mM
So I've got a bunch of compounds here, and I need their IC50 values.
Give bare numbers, in µM.

As a guide, the following entries are already answered.
O=C(/C=C/c1ccc(C(F)(F)F)cc1)NCC(=O)N1CCn2nc(C(=O)O)c(-c3ccc(C(F)(F)F)cc3)c2C1    0.066
CNC(=O)c1nn2c(c1Br)CN(C(=O)CNC(=O)/C=C/c1ccc(C(F)(F)F)cc1)CC2    0.071

Items follow; give IC50 for each.
1. O=C(/C=C/c1ccc(C(F)(F)F)cc1)NCC(=O)N1CCCc2ccccc21
2. O=C(/C=C/c1ccc(C(F)(F)F)cc1)NCC(=O)N1CC(=O)NC(c2ccccc2)C1 (single isomer, unassigned) [I-136]
3. O=C(/C=C/c1ccc(C(F)(F)F)cc1)NCC(=O)N1Cc2cccnc2C1

Result string:
1. 0.124
2. 0.087
3. 0.07
